// provenance: PubChem BioAssay (NCI)

- Tested on: HCT-116 colon
- assay_method_text: NCI-60 one-dose screen, 48 h
- test_settings: 10 µM unless noted
- Description: Growth inhibition of the HCT-116 human tumor cell line is measured as a screen for anti-cancer activity. Cells are grown in 96 well plates and exposed to the test compound for 48 hours. Compounds are tested at a single concentration, which is 10^-5 M for most compounds. The reported endpoint is percent growth (GI% or GIPRCNT), where numbers from 0 - 100% represent growth inhibition, and numbers from -100% - 0 represent cell death. For example, a value of 40 represents 60% growth inhibition. […]
This is part of a sample that, as a whole, favours compounds with a hit. Of some 83,000 tested, about 20% had one in any assay. Activity calls are given as the source filed them. The calls were made as follows: active = growth percent below 10; inactive = the rest.
Outcome codes: 1 (yes) for active, 0 (no) for inactive

FC(F)(F)c1nn[nH]n1: 0 (no)
OCCN(CCO)c1ccc2ccccc2c1: 0 (no)
N=c1nc(N2CCCCC2)cc(N)n1O: 0 (no)
Clc1ccc(Cl)c(N=Cc2ccc3c(c2)OCO3)c1: 0 (no)
Clc1ccc(-c2cnc3c(-c4ccnc(N5CCNCC5)c4)cnn3c2)cc1: 1 (yes)
Nc1nc(NC2CC2)cc(-c2cccc(Cl)c2Cl)n1: 0 (no)
Cc1cccc(/C=N/n2c(-c3ccc(Cl)cc3)nc3c(Br)cc(Br)cc3c2=O)c1: 0 (no)
C#Cc1cccc(Nc2nc3cc([N+](=O)[O-])ccc3nc2Nc2ccc(O)cc2)c1: 1 (yes)
NS(=O)(=O)c1ccc(CCn2c(SCC(=O)N/N=C/c3ccccc3O)nc3ccccc3c2=O)cc1: 0 (no)
CN(C)c1nc(-c2ccco2)n2nc(-c3ccc(Cl)cc3)cc2n1: 0 (no)
O=C(/C=C/c1ccco1)c1ccccc1O: 0 (no)
C=C1C(=O)O[C@H]2[C@H]1CC/C(COC(=O)NCc1ccc(Cn3c(=O)sn(CCCl)c3=O)cc1)=C\CC[C@@]1(C)O[C@@H]21: 1 (yes)
CS(=O)(=O)c1ccc(C(=O)N2N=C(c3ccccc3)CC2c2ccc3c(c2)OCO3)cc1 (configuration not stated): 0 (no)
ClCCn1cnc2c(SCc3ccccc3Cl)ncnc21: 0 (no)
CNC(=O)c1c(NC(=O)c2ccc(C(C)C)cc2)sc2c1CCC(=O)C2: 1 (yes)
O=C1C(Cl)=C(Nc2cccc3ccccc23)C(=O)c2ccccc21: 0 (no)
CCN(CC)c1ccc(/C=C2/NC(=O)NC2=O)cc1: 0 (no)
Clc1ccc(-c2cnc3nonc3n2)s1: 0 (no)
CC(=O)C1CCC2C3CC(C)=C4CC(O)CCC4(C)C3CCC12C (configuration not stated): 0 (no)
COc1cc(OC)c2sc(-c3ccc(-n4cncc4-c4ccc(OC)c(N)c4)cc3)nc2c1: 0 (no)
Oc1ccc(-c2nc3ccccc3s2)cc1CN(Cc1ccccn1)Cc1ccccn1: 0 (no)
O=C(CCCCCCN1CC(=O)N2[C@@H](c3ccc(Cl)c(Cl)c3)c3[nH]c4ccccc4c3C[C@H]2C1=O)NO: 0 (no)

###

- Tested on: ACHN renal
- assay_method_text: NCI-60 one-dose screen, 48 h (100 = growth as untreated, 0 = no growth, -100 = all killed)
- test_settings: 10 µM unless noted
This is part of a sample that, as a whole, favours compounds with a hit. Of some 83,000 tested, about 20% had one in any assay.
Listed next: entries and their corresponding growth.
experimental_endpoint: growth (%)

O=C(Nc1cccc(C2=NCCN2)c1)c1ccc(N=Nc2ccc(C(=O)Nc3cccc(C4=NCCN4)c3)cc2)cc1: 52.4
NC(CCC(=O)NC(CS)C(=O)NCC(=O)O)C(=O)O (centres undefined): 104
Cn1c(-c2ccccc2)cc(=O)n1-c1ccccc1: 109
CN1C(=O)C(C(=O)/C=C/c2ccccc2C(=O)O)C(=O)N(C)C1=O: 108

###

Listed next: entries and their corresponding growth.
- System: ACHN renal
- assay_method_text: NCI-60 one-dose screen, 48 h (100 = growth as untreated, 0 = no growth, -100 = all killed)
- test_settings: 10 µM unless noted
- Procedure: Growth inhibition of the ACHN human tumor cell line is measured as a screen for anti-cancer activity. Cells are grown in 96 well plates and exposed to the test compound for 48 hours. Compounds are tested at a single concentration, which is 10^-5 M for most compounds. The reported endpoint is percent growth (GI% or GIPRCNT), where numbers from 0 - 100% represent growth inhibition, and numbers from -100% - 0 represent cell death. For example, a value of 40 represents 60% growth inhibition. […]
The panel holds about 83,000 compounds, 20% with a hit somewhere; the sample as a whole holds those more often.
experimental_endpoint: growth (%)

CC(C)CCSc1nc(Nc2ccccc2)c(C#N)c(-c2ccc(F)cc2)n1: 13.4
CCN(CC)CCNC(=O)n1cc(-c2ccncc2)c(-c2cc(Cl)cc(OC)c2)n1: 57.1
CN(C)c1nc(-c2cccs2)n2nc(-c3ccc(Cl)cc3)cc2n1: -21.1
COc1ccc(Oc2nc(Nc3ccc(N4CCOCC4)cc3)ncc2NC(=O)Nc2cccc(OC)c2)cc1: 68
CC(=O)O[C@H]1CC[C@]2(C)[C@H]3CC=C4[C@@H]5CC(C)(C)CC[C@]5(C(=O)OCC(COC(=O)C(Cl)Cl)(COC(=O)C(Cl)Cl)NC(=O)C(Cl)Cl)CC[C@@]4(C)[C@]3(C)CC[C@H]2C1(C)C: 62.4

###

Listed next: entries and their corresponding growth.
- Tested on: SR leukemia
- assay_method_text: NCI-60 one-dose screen, 48 h (100 = growth as untreated, 0 = no growth, -100 = all killed)
- test_settings: 10 µM unless noted
The panel holds about 83,000 compounds, 20% with a hit somewhere; the sample as a whole holds those more often.
experimental_endpoint: growth (%)

O=C1/C(=C/c2cc(F)cc(F)c2)Cc2cc(F)cc(F)c21: 62.8
C#Cc1cccc(Nc2nc3cc([N+](=O)[O-])ccc3nc2Nc2ccc(O)cc2)c1: 3.34
Cc1ccncc1NC=O: 93.8
COc1cc(C2CC(c3ccc(Cl)cc3)=NN2C(C)=O)ccc1Oc1nc2c(c(=O)n(C)c(=O)n2C)n1C (stereo not given): 78.5
C[C@@H]1N=C(c2ccc3ccccc3c2)Nc2nc3ccccn3c2C1=O: 30.5
CN1C(=O)C(C2=NNC(c3ccccc3C(=O)O)C2)C(=O)N(C)C1=O (stereo not given): 101
OC(CCCCCCCCC(O)CN1CCc2ccccc2C1)CN1CCc2ccccc2C1 (stereo not given): 104
CCCCOc1nc2ccccc2cc1/C=C/c1cc(/C=C/c2cc3ccccc3nc2OCCCC)n(-c2ccccc2)n1: 98.7
CCOc1cc(/C=N\NC(=O)C[N+](C)(C)C)ccc1O: 14.3
CC(=O)Nc1ccc(/C=N/N2CCCCCC2)cc1: 96.2

###

- System: NCI-H226 lung
- assay_method_text: NCI-60 one-dose screen, 48 h (100 = growth as untreated, 0 = no growth, -100 = all killed)
- test_settings: 10 µM unless noted
Compounds without any hit were thinned out: in the full panel of roughly 83,000, 20% have a hit.
The threshold is inclusive: growth of exactly 70% counts as True; values below receive False.

CC(NC(=O)c1ccccc1)C(=O)Nc1ccccc1 (stereo not given): True
COc1cc(OC)c(Cl)cc1N: True
Clc1ccc(Cl)c(N=Cc2ccc3c(c2)OCO3)c1: True
c1cc(C2CCCCC2)ccc1-c1cnc2nonc2n1: False
O=C(NNC(=O)c1cccc(Cl)c1)c1ccccc1: True
CC1OC(n2c3ccccc3c3c4c(c5c6ccccc6[nH]c5c32)C(=O)N(CCN[C@H]2CCC[C@@H]2N)C4=O)CC(O)C1O (stereo not given in full): False
CCC1=CC2CN(C1)Cc1c([nH]c3ccccc13)[C@@](C(=O)OC)(c1cc3c(cc1OC)N(C)[C@H]1[C@@](O)(C(=O)OC)[C@H](OC(C)=O)[C@]4(CC)C=CCN5CC[C@]31[C@@H]54)C2 (stereo not given in full): False
C=CCN(CC#N)CC=C: True
COc1cc2c(=O)n(CCCN(C)C)c3c4cc[nH]c4ncc3c2cc1OC: False
CCCCOc1nc2ccc(C)cc2cc1/C=C/C(=O)/C=C(O)/C=C/c1cc2cc(C)ccc2nc1OCCCC: True
CC(C)(C)c1cc(C[P+](c2ccccc2)(c2ccccc2)c2ccccc2)cc(C(C)(C)C)c1O: False
CCCCCCCCCCCCCCCCCC(=O)OCCCCCCCCCCCCC: True
O=S(=O)(Nc1ccc2ccccc2c1)N1CCCCC1: True
CC(C)(CCc1ccccn1)C(=O)CCCc1ccccn1: True
C=CCOc1ccc2c(C)cc(=O)oc2c1: True
C=C(c1ccc(C(=O)NCCCn2ccnc2)cc1)c1cc2c(cc1C)C(C)(C)CCC2(C)C: True
CC(C)CCC(=O)[C@@H](C)[C@H]1[C@@H](OC2OCC(O)C(O)C2NS(C)(=O)=O)C[C@H]2[C@@H]3CC=C4C[C@@H](O)CC[C@]4(C)[C@H]3CC[C@]12C (stereo not given in full): False
CNC(=O)OC1C(O[C@H]2C[C@H]3[C@@H]4CC=C5C[C@@H](O)CC[C@]5(C)[C@H]4CC[C@]3(C)[C@H]2[C@H](C)C(=O)CCC(C)C)OCC(O)C1OC1OCC(O)C(O)C1OC(=O)c1ccc(OC)cc1 (stereo not given in full): False
CC1=CCC2C1CC=C(C)C(CC[C@H]1[C@@](C)(O)CCC3OC(C)(C)[C@H](OC(=O)c4ccccc4)CC[C@@]31C)C2(C)C (stereo not given in full): True
COc1ccc2c(c1)N(Cc1ccc(Cl)cc1)CCC2N1CCCC1=O (stereo not given): False
CCC(=O)OCc1ccc(OC)cc1: True
Fc1cc(-c2cnc3nonc3n2)c(Cl)cc1Cl: True
C=C1C(=O)O[C@H]2[C@H]1CC/C(COC(=O)NCc1c[nH]c3ccc(OC)cc13)=C\CC[C@@]1(C)O[C@@H]21: False
CCN(CC)c1cc(C)c(Cc2c(OC)ccc3ccccc23)cc1C: True
CS(=O)(=O)c1ccc(C(=O)Nc2ccc(Cl)c(-c3ccccn3)c2)c(Cl)c1: False
O=C(c1ccccc1)C(CCc1ccccn1)CCc1ccccn1: True
CCCCCCCCCCCCNC(=O)N[C@H](C(=O)N[C@H]1/C=C/OCCNC(=O)/C=C/[C@H](C(C)C)NC1=O)C(C)C: False
COc1cc(Nc2ncccc2/C=C/C(=O)c2cc(OC)c(OC)c(OC)c2)cc(OC)c1OC: True
Fc1ccc(-c2cnc3nonc3n2)c(F)c1: True
COc1ccc(/C=N/NC(N)=S)c(OC)n1: True
C=CCOC(=O)C1=C(C)NC2=C(C(=O)CCC2)C1c1ccc(F)cc1 (stereo not given): True
C=C1C(=O)O[C@H]2[C@H]1CC/C(COC(=O)NCc1cn(C)c3ccccc13)=C\CC[C@@]1(C)O[C@@H]21: False
COc1cc(C2C(C#N)=C(N)Oc3cc4c(cc32)OCO4)cc2c1OCO2 (stereo not given): False
COc1cc2c(c(OC)c1O)C(=O)C(OC)C(c1ccc(O)c(O)c1)O2 (stereo not given): False
CCCCCCCCCCCC1=NC(C)(C)CN1C(C)C: True
CCn1c(=O)c(C(=O)NCCCO)c(O)c2ccccc21: True
COc1cnc2c(c1)C(=O)c1c-2n(CCCN2CCCC2)c(=O)c2cc(Cl)ccc12: False
C=C1C(=O)O[C@H]2[C@H]1CC/C(COC(=O)NCc1[nH]nc3ccccc13)=C\CC[C@@]1(C)O[C@@H]21: False
CCCCCCCCCCCCCC1=NC(C)(C)CN1C(C)C: False
CC(C)(C)c1ccc(C(=O)Nc2sc3cc(O)ccc3c2C(N)=O)cc1: True
